Every entry's value here was drawn from patent US20240228501A1.

Listed next: entries and their corresponding concentration at 2 h.
assay: Pharmacokinetic test in rats: plasma and brain concentration after gavage 3 mg/kg; assay type: in vivo; details: rat, brain, oral, SD rats, sampling time 2 h, read-out: Brain conc.
Measurement Kind: concentration at 2 h (ng/mL)

> print(dat)
                                   molecule  readout.value
1  Cc1nsc(-c2nnc3n2CCN(C(=O)c2ccc(F)cc2)[C@@H]3C)n1 [Fezolinetant, reference compound]            585
2  Cc1nsc(-c2nc(-c3cc(F)ncc3F)c3n2CCN(C(=O)c2ccc(F)cc2)[C@@H]3C)n1           1980

###

experiment: Pharmacokinetic test in rats: plasma and brain concentration after gavage 3 mg/kg; assay type: in vivo; settings: rat, plasma, oral, SD rats, sampling time 1 h, read-out: Plasma conc.
Measurement Kind: concentration at 1 h (ng/mL)

> print(dat)
                                   molecule  readout.value
1  Cc1nsc(-c2nnc3n2CCN(C(=O)c2ccc(F)cc2)[C@@H]3C)n1 [Fezolinetant, reference compound]           1330

###

molecular target: UniProt P29371; test: Antagonistic activity on human NK-3 receptor in human NK-3R/HEK293 stably transfected cells (Fluo-4, FLIPR, Neurokinin B as agonist); details: human NK-3R/HEK293 cells
pIC50: −log10 of the molar value.
Measurement Kind: pIC50

> print(dat)
                                    compound  readout.value
 1  Cc1nsc(-c2nc(N3CCOC3=O)c3n2CCN(C(=O)c2ccc(F)cc2)[C@@H]3C)n1 [Compound 101]           7.69
 2  Cc1nsc(-c2nc(N3Cc4ccccc4C3=O)c3n2CCN(C(=O)c2ccc(F)cc2)[C@@H]3C)n1 [Compound 085]           7.89
 3  C[C@@H]1c2c(N3CCCC3=O)nc(-c3nc(CF)ns3)n2CCN1C(=O)c1ccc(F)cc1 [Compound 184]           7.33
 4  Cc1nsc(-c2nc(-c3c(F)cccc3F)c3n2CCN(C(=O)c2ccc(F)cc2)[C@@H]3C)n1 [Compound 063]           7.32
 5  Cc1nsc(-c2nc(NS(C)(=O)=O)c3n2CCN(C(=O)c2ccc(F)cc2)[C@@H]3C)n1 [Compound 040]           7.29
 6  Cc1nsc(-c2nc(-c3cc(F)ncc3F)c3n2CCN(C(=O)c2ccc(F)cc2)[C@@H]3C)n1 [Compound 077]           7.84
 7  CC(=O)N(C)c1nc(-c2nc(C)ns2)n2c1[C@@H](C)N(C(=O)c1ccc(F)cc1)CC2 [Compound 060]           7.57
 8  Cc1nsc(-c2nc(N3CCOCCC3=O)c3n2CCN(C(=O)c2ccc(F)cc2)[C@@H]3C)n1 [Compound 114]           7.54
 9  Cc1nsc(-c2nc(-c3ccco3)c3n2CCN(C(=O)c2ccc(F)cc2)[C@@H]3C)n1 [Compound 218]           6.65
10  CC(=O)Cc1nc(-c2nc(C)ns2)n2c1[C@@H](C)N(C(=O)c1ccc(F)cc1)CC2 [Compound 214]           6.61
11  Cc1nsc(-c2nc(N3CCCCC3=O)c3n2CCN(C(=O)c2ccc(F)cc2)[C@@H]3C)n1 [Compound 069]           8.13
12  Cc1nsc(-c2nnc3n2CCN(C(=O)c2ccc(F)cc2)[C@@H]3C)n1 [Fezolinetant, reference compound]           6.13
13  Cc1nsc(-c2nc(N3C[C@H](O)CC3=O)c3n2CCN(C(=O)c2ccc(F)cc2)[C@@H]3C)n1 [Compound 103]           8.24
14  Cc1nsc(-c2nc([C@H]3CCCC3=O)c3n2CCN(C(=O)c2ccc(F)cc2)[C@@H]3C)n1 [Compound 211]           6.55
15  CO[C@@H]1CC(=O)N(c2nc(-c3nc(C)ns3)n3c2[C@@H](C)N(C(=O)c2ccc(F)cc2)CC3)C1 [Compound 115]           7.64

###

Catalogue of concentration at 2 h readings, one per entry.
Assay: Pharmacokinetic test in rats: plasma and brain concentration after gavage 3 mg/kg
Assay type: in vivo
Conditions: rat, plasma, oral, SD rats, sampling time 2 h, read-out: Plasma conc.
Text: Test Example 4: Pharmacokinetic Test of Compounds of the Present Invention in Rats To study in vivo pharmacokinetic behaviors of the compounds of the present invention in rats, and evaluate pharmacokinetic characteristics thereof. […] The concentrations of corresponding compounds in plasma and cerebrospinal fluid were detected by LC-MS/MS.
Measurement Kind: concentration at 2 h (ng/mL)

> print(dat)
                                   molecule  readout.value
1  Cc1nsc(-c2nc(-c3cc(F)ncc3F)c3n2CCN(C(=O)c2ccc(F)cc2)[C@@H]3C)n1            547
2  Cc1nsc(-c2nnc3n2CCN(C(=O)c2ccc(F)cc2)[C@@H]3C)n1 [Fezolinetant, reference compound]           1280

###

Each entry below carries its recorded IC50.
target: human NK-3 receptor (Homo sapiens, UniProt P29371); assay: Antagonistic activity on human NK-3 receptor in human NK-3R/HEK293 stably transfected cells (Fluo-4, FLIPR, Neurokinin B as agonist); conditions: human NK-3R/HEK293 cells
Sequence (P29371 whole entry): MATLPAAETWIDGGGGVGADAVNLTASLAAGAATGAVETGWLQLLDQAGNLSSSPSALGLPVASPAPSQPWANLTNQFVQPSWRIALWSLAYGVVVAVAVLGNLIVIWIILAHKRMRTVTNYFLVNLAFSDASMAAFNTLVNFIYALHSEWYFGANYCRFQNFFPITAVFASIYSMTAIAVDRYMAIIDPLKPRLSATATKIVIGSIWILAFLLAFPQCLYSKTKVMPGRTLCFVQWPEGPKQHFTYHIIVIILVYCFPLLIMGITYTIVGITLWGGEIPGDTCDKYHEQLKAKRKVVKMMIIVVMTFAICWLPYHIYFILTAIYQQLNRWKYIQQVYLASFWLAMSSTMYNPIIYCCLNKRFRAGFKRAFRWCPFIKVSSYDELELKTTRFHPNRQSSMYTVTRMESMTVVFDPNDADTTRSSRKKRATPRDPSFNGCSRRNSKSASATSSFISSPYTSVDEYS
Measurement Kind: IC50 (nM)

> print(dat)
                                   molecule  measurement.kind  readout.value
1  Cc1nsc(-c2nc(-c3ccncc3F)c3n2CCN(C(=O)c2ccc(F)cc2)[C@@H]3C)n1 [Compound 046]              IC50           7.02
2  Cc1nsc(-c2nc(-c3ccncc3)c3n2CCN(C(=O)c2ccc(F)cc2)C3C)n1 (stereo not shown) [Compound 005]              IC50           64.6
3  C[C@@H]1c2c(N3C[C@H](O)CC3=O)nc(-c3nc(C(F)(F)F)cs3)n2CCN1C(=O)c1ccc(F)cc1 [Compound 120]              IC50           18.8
4  C[C@@H]1c2c(N3CCCC3=O)nc(-c3nc([C@@H](C)F)ns3)n2CCN1C(=O)c1ccc(F)cc1 [Compound 186]              IC50           88.1
5  Cc1nsc(-c2nc(N3CCOCC3)c3n2CCN(C(=O)c2ccc(F)cc2)[C@@H]3C)n1 [Compound 033]              IC50           50.6
6  Cc1nsc(-c2nc(-c3ccncc3)c3n2CCN(C(=O)c2ccc(F)cc2)[C@@H]3C)n1 [Compound 026]              IC50             35
7  Cc1nsc(-c2nc(N3CCCCCC3=O)c3n2CCN(C(=O)c2ccc(F)cc2)[C@@H]3C)n1 [Compound 117]              IC50           72.5

###

experiment: Pharmacokinetic test in rats (gavage 3 mg/kg, intravenous 1 mg/kg); type: in vivo; settings: rat, plasma, po; SD rats, gavage 3 mg/kg; read-out: Curve area AUC
Please use yes for AUC under 3000 ng·h/mL and no for everything else, ties included.

> print(dat)
                                   compound  assigned.label
1  Cc1nsc(-c2nc(N3C[C@H](F)CC3=O)c3n2CCN(C(=O)c2ccc(F)cc2)[C@@H]3C)n1             yes
2  Cc1nsc(-c2nc(N3CCCC3=O)c3n2CCN(C(=O)c2ccc(F)cc2)[C@@H]3C)n1             yes
3  Cc1nsc(-c2nc(-c3cc(F)ncc3F)c3n2CCN(C(=O)c2ccc(F)cc2)[C@@H]3C)n1              no
4  CC(=O)Nc1nc(-c2nc(C)ns2)n2c1[C@@H](C)N(C(=O)c1ccc(F)cc1)CC2              no
5  Cc1nsc(-c2nnc3n2CCN(C(=O)c2ccc(F)cc2)[C@@H]3C)n1 [Fezolinetant, reference compound]              no

###

experiment: Pharmacokinetic test in rats: plasma and brain concentration after gavage 3 mg/kg; assay type: in vivo; settings: rat, brain/plasma, oral, SD rats, sampling time 0.5 h, read-out: B/P ratio
Measurement Kind: Kp at 0.5 h

> print(dat)
                                 smiles.str  measurement.kind  readout.value
1  Cc1nsc(-c2nc(-c3cc(F)ncc3F)c3n2CCN(C(=O)c2ccc(F)cc2)[C@@H]3C)n1       Kp at 0.5 h           3.25

###

test: Pharmacokinetic test in rats: plasma and brain concentration after gavage 3 mg/kg; assay type: in vivo; details: rat, brain/plasma, oral, SD rats, sampling time 4 h, read-out: B/P ratio
Measurement Kind: Kp at 4 h

> print(dat)
                                   molecule  readout.value
1  Cc1nsc(-c2nnc3n2CCN(C(=O)c2ccc(F)cc2)[C@@H]3C)n1 [Fezolinetant, reference compound]           0.44
